Give Binding Signal (fold over 6E7 Parental antibody) for every item shown.
Biological target: T1, human TREM2 (human, UniProt Q9NZC2 19-174, limits assumed)
T1 construct: also called triggering receptor expressed on myeloid cells 2
T1 sequence: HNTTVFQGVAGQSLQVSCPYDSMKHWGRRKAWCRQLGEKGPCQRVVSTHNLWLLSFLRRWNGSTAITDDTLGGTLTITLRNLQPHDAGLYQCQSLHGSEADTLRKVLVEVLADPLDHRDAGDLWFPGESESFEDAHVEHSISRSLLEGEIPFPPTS
Assay: 1st screen (110 nM or 10 nM)
# unit: fold | format: bare number

// V22 (antibody, V domains shown) VH: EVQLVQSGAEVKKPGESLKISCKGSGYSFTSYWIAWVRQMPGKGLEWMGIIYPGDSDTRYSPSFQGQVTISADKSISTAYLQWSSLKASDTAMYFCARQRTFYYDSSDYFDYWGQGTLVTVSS VL: DIQMTQSPSSVSASVGDRVTITCRASQGISSWLAWYQQKPGKAPKLLIYRASSLQNGVPSRFSGSGSGTDFTLTISSLQPEDFATYFCQQADSFPRTFGQGTKLEIK : Binding Signal (fold over 6E7 Parental antibody) value = 0.3

GET /value?item= V42 (antibody, V domains shown) VH: EVQLVQSGAEVKKPGESLKISCKGSGYSFTSAWIAWVRQMPGKGLEWMGIIYPGDSDTRYSPSFQGQVTISADKSISTAYLQWSSLKASDTAMYFCARQRTFYYDSSDYFDYWGQGTLVTVSS VL: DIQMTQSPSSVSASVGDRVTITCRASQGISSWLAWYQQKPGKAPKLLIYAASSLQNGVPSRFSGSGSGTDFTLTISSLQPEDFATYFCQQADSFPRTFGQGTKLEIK &field=Binding Signal (fold over 6E7 Parental antibody) returns 0.45
